B1: S100A14 (parent)
chain: KIANLGSCNDSKLEFRSFWELIGE

variants of: B1; test: protein stability index of a GFP-peptide fusion (GPS, HEK-293T) (PSI 1-6); higher = more stable; conditions: c terminus: a fixed tail appended;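 also: lentivirally expressed fusions sorted by FACS into six bins by GFP to DsRed ratio, PSI derived from sequencing read proportions per bin multiplied by bin number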
Label label 1 for high-side protein stability index (at or above 2) and label 0 for low-side protein stability index (below it).

S11H; label 0
N9D; label 0
G23T; label 1
E24Q; label 1
L13I; label 1
R16C; label 0
S7E; label 0
K12I; label 0
G23W; label 1
S7T; label 0

Dear colleague, could you confirm whether E14M has protein stability index at or above 2?
label 1

Hi team, for L5I , is the recorded protein stability index at or above 2?
label 0
